B1: CPEB3 Ribozyme (parent)
chain: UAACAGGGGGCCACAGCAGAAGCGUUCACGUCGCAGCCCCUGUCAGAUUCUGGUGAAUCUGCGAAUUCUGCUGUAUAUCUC

Variants of: B1
Assay: self-cleavage, relative activity (ratio to wild type); higher = more cleavage; in vitro, sequencing
Kind request: treat 0.4 as inclusive, so self-cleavage at 0.4 or higher is label 1, anything lower is label 0.

Solved entries (count: 3):
UAACAGGGGGCCACAGUAGAAGCGUUCACGUCGCAGCCCCUGUCAGAUUCUGCUGAAUCUGCGAAUUCUGCUGUAUAUCUC
label 1
UAACAAGGGGCCACAGCAGGAGCGUUCACGUCGCAGCCCCUGUCAGAUUCUGGUGAAUCUGCGAAUUCUGCUGUAUAUCUC
label 1
UAACAGAGGGCCGCAGCAGAAGCGUUCACGUCGCAGCCCCUGUCAGAUUCUGGUGAAUCUGCGAAUUCUGCUGUAUAUCUC
label 0

Answer whether self-cleavage of `UAACAGGGGGCCACAGCAGAAGCGUUCACGUCGCAGCCCCCGUUAGAUUCUGGUGAAUCUGCGAAUUCUGCUGUAUAUCUC` is greater than or equal to 0.4.
label 1
